TARGET_OF_ASSAY: TPR-MET fusion protein (Homo sapiens)
Construct: the MET gene on chromosome 7 encoding for its cytoplasmic region catalytic domain; host or cells: MNNGHOS cells; the other entry of the earlier key: TPR (P12270, Nucleoprotein TPR)
Sequence (P08581 with tags, fused parts or gaps): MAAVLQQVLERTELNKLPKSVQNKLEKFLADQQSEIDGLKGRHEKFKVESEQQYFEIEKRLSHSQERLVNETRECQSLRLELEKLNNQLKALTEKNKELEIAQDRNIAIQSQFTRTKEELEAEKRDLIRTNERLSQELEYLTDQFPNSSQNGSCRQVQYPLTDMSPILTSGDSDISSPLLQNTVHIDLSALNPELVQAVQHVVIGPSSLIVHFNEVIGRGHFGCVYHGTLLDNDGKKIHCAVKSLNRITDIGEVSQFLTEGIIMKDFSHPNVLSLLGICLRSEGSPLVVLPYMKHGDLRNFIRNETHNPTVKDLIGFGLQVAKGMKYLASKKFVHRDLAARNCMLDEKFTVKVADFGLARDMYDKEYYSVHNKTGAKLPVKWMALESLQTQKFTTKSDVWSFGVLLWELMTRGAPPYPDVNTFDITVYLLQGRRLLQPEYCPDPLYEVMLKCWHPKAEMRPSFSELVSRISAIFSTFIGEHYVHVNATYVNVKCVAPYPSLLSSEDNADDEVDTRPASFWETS
PROTOCOL_SUMMARY: C-Met phosphorylation cell-based assay (MNNGHOS cells)
SETTINGS: MNNGHOS cells, 3 hours treatment, immunoblot; read-out: Y1230-34-35 TPR-MET phosphorylation (IC50)
PROPERTY_LABEL: pIC50
One number for each entry, as −log10 of the molar value.

Please review the following examples before continuing.
COc1ccccc1NC(=O)CC(=O)Nc1ccc(Oc2ccnc3cc(-c4cncn4C)sc23)c(F)c1 [Compound 28c] | 6.23
Cn1ccnc1-c1cc2nccc(Oc3ccc(NC(=O)CC(=O)Nc4ccccc4F)cc3F)c2s1 [Compound 30a] | 7.55
Cn1cnc(-c2cc3nccc(Oc4ccc(NC(=O)CC(=O)Nc5ccccc5)cc4F)c3s2)c1 [Compound 5c] | 8.10

Could you now look at the following compound, please?
Just so you know, measured pIC50 for Cn1ccnc1-c1cc2nccc(Oc3ccc(NC(=O)CC(=O)Nc4ccccc4)cc3F)c2s1 [Compound 5b] came out at 7.40

====

TARGET_OF_ASSAY: recombinant human c-Met/HGF receptor (Homo sapiens)
Construct: His tag (pBlueBacHis2A vector); made in house; host or cells: Hi-5 cells (Trichoplusia ni), baculovirus
PROTOCOL_SUMMARY: In vitro receptor tyrosine kinase assay (DELFIA), c-Met/HGF receptor
Assay type: biochemical
SETTINGS: read-out: CMET IC50
PROPERTY_LABEL: IC50

Cn1cnc(-c2cc3nccc(Nc4ccc(NC(=O)C5(C(=O)Nc6ccccc6)CC5)cc4F)c3s2)c1 | < 50 nM
COc1ccccc1NC(=O)CC(=O)Nc1ccc(Oc2ccnc3cc(C#CCN(C)C)sc23)c(F)c1 | 50 to 250 nM
CCn1cnc(-c2cc3nccc(Oc4ccc(NC(=S)N5CCN(c6ccccc6)C5=O)cc4F)c3s2)c1 | < 50 nM
Cn1cnc(-c2cc3nccc(Oc4ccc(NC(=O)C5(C)CCN(c6ccccc6)C5=O)cc4F)c3s2)c1 (centres unmarked) | 50 to 250 nM
CCN(CC)CCn1cnc(-c2cc3nccc(Oc4ccc(NC(=O)CC(=O)N(C)c5ccccc5)cc4F)c3s2)c1 | 50 to 250 nM
CN(C(=O)CC(=O)Nc1ccc(Oc2ccnc3cc(-c4cn(C)cn4)sc23)c(F)c1)c1ccccc1 | 50 to 250 nM

Please state IC50 for every compound in the list that follows.
1. CCn1cnc(-c2cc3nccc(Oc4ccc(NC(=O)CC(Nc5ccc(F)cc5)C(F)(F)F)cc4F)c3s2)c1 (centres unmarked)
2. Cn1cnc(-c2cc3nccc(Oc4ccc(NC(=O)C5CCN(c6ccc(F)cc6)C5=O)cc4F)c3s2)c1 (centres unmarked)

stdout:
1: 250 to 500 nM; 2: < 50 nM

====

I'd be grateful if you could share measured pIC50 for these entries.
TARGET_OF_ASSAY: recombinant human c-Met/HGF receptor (Homo sapiens, UniProt P08581)
Construct: His tag (pBlueBacHis2A vector); made in house; host or cells: Hi-5 cells (Trichoplusia ni), baculovirus
Sequence (P08581 1078-1337): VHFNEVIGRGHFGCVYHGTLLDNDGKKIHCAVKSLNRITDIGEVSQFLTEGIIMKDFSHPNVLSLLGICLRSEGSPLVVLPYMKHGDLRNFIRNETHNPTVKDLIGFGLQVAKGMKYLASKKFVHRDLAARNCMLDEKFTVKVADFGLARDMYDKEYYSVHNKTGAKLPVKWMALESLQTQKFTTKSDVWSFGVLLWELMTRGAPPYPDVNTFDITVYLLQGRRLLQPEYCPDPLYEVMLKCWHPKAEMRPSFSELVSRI
PROTOCOL_SUMMARY: In vitro receptor tyrosine kinase assay (DELFIA), c-Met/HGF receptor
Type: biochemical
SETTINGS: read-out: CMET IC50
pIC50: −log10 of the molar value.

Worked examples, 5 compounds total:
Cn1ccnc1-c1cc2nccc(Oc3ccc(NC(=O)N4CCN(c5ccc(F)cc5)C4=O)cc3F)c2s1 | 6.60 to 7.30
CN1CCN(CCN(C)Cc2ccc(-c3cc4nccc(Oc5ccc(NC(=O)C6(C(=O)Nc7ccc(F)cc7)CC6)cc5F)c4s3)cc2)CC1 | > 7.30
CN(C)CCCN(C)Cc1ccc(-c2cc3nccc(Oc4ccc(NC(=O)CC(=O)N(C)c5ccccc5)cc4F)c3s2)cc1 | > 7.30
CN1CCN(CCN(C)Cc2cccc(-c3cc4nccc(Oc5ccc(NC(=O)CC(=O)N(C)c6ccccc6)cc5F)c4s3)c2)CC1 | 6.60 to 7.30
COc1ccccc1NC(=O)C1(C(=O)Nc2ccc(Oc3ccnc4cc(-c5cn(CCN6CCCC6)cn5)sc34)c(F)c2)CC1 | > 7.30

For every listed record, write down its pIC50.
1. CN(C)CCn1cnc(-c2cc3nccc(Oc4ccc(NC(=O)CC(=O)Nc5ccccc5)cc4F)c3s2)c1
2. COc1ccc(NC(=O)C2(C(=O)Nc3ccc(Oc4ccnc5cc(-c6cn(C)cn6)sc45)c(F)c3)CC2)cc1
3. CNCCn1cnc(-c2cc3nccc(Oc4ccc(NC(=O)CC(=O)Nc5ccccc5OC)cc4F)c3s2)c1
4. CC(C)n1cnc(-c2cc3nccc(Oc4ccc(NC(=O)C5CC(=O)N(c6ccccc6)C5)cc4F)c3s2)c1 (stereo not shown)
5. CCn1cncc1-c1cc2nccc(Oc3ccc(NC(=O)CC(=O)Nc4ccccc4F)cc3F)c2s1
6. O=C(Nc1ccc(Oc2ccnc3cc(-c4cn(CCN5CCCC5)cn4)sc23)c(F)c1)C1(C(=O)Nc2ccccc2F)CC1
7. Cn1cnc(-c2cc3nccc(Oc4ccc(NC(=O)CC(=O)Nc5ccccc5F)cc4F)c3s2)c1
8. COc1ccccc1NC(=O)CC(=O)Nc1ccc(Oc2ccnc3cc(-c4ccc(OCCN5CCOCC5)cc4)sc23)c(F)c1

stdout:
> 7.30
6.60 to 7.30
6.60 to 7.30
6.30 to 6.60
6.60 to 7.30
> 7.30
> 7.30
6.60 to 7.30

Your task in this section: give pIC50 for each listed record.
1. COc1ccccc1NC(=O)CC(=O)Nc1ccc(Oc2ccnc3cc(-c4cnc(N5CCOCC5)nc4)sc23)c(F)c1
2. Cn1cnc(-c2cc3nccc(Oc4ccc(NC(=O)C5(C(=O)Nc6ccc(F)cc6)CC5)cc4F)c3s2)c1
3. CC(C)n1cnc(-c2cc3nccc(Oc4ccc(NC(=O)CC(=O)Nc5ccccc5F)cc4F)c3s2)c1

stdout:
1: < 6.30; 2: > 7.30; 3: > 7.30
